# CONDITIONS: human, 15 min, 97.6 µM
QUANTITY: Content of the compound % (%)

Use the examples below as a reference point.
{"COMPOUND": "CCCCCCCCOC(=O)OC(C)OC(=O)C1CCn2c(C(=O)c3ccccc3)ccc21 (stereo not shown)", "Content of the compound % (%)": 100}
{"COMPOUND": "CC(C)OC(=O)OC(C)OC(=O)C1CCn2c(C(=O)c3ccccc3)ccc21 (stereo not shown)", "Content of the compound % (%)": 88.103}
{"COMPOUND": "CCC(=O)OC(CC)OC(=O)C1CCn2c(C(=O)c3ccccc3)ccc21 (stereo not shown)", "Content of the compound % (%)": 69.713}

1: CCOC(=O)OC(C)OC(=O)C1CCn2c(C(=O)c3ccccc3)ccc21 (stereo not shown)
2: CC(C)OC(=O)C1CCn2c(C(=O)c3ccccc3)ccc21 (stereo not shown) [N11, reference compound]
When the recorded Content of the compound % values are compared, which is smaller: that of 1 or that of 2 ? Provide the label of your selected option as the answer. 1
